molecular target: protein-protein interaction between Kras and SOS1 (biotin-tagged human Kras loaded with GDP, His-tagged human SOS1) (Homo sapiens (Human), UniProt P01116, G12D); experiment: Protein-protein interaction inhibition between Kras and SOS1 (KrasG12D-SOS PPI) using AlphaScreen; type: biochemical; settings: AlphaScreen; biotin-tagged human Kras loaded with GDP, His-tagged human SOS1; read-out: KRAS G12D-SOS PPI IC50;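 also: kras produced in E. coli, Ni-coupled donor beads and streptavidin acceptor beads, excitation 680 nm with emission detected at 520–620 nm via singlet oxygen transfer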
pIC50: −log10 of the molar value. Numbered stars: 1 amine (or outer) side, 2 acyl side, 3 side chain; on linkers, the order of the positions; unused ones are H or OH. Bridge positions count the residues as written; N and C are the ends. Square brackets hold non-standard residues; d marks the D form. Peptide text beside a SMILES is read from it. * marks the point of attachment. hPhe(3-Cl-4-CF3) = N[C@@H](CCc1ccc(C(F)(F)F)c(Cl)c1)C(=O)O; hPhe(3-F,4-CF3) = N[C@@H](CCc1ccc(C(F)(F)F)c(F)c1)C(=O)O; NEtPhe(4-CF3) = CCN[C@@H](Cc1ccc(C(F)(F)F)cc1)C(=O)O; X8 = CC(C)Oc1cc(CC[C@H](N[*:1])C(=O)[*:2])cc(Cl)c1Cl; NMePhe(4-Me) = CN[C@@H](Cc1ccc(C)cc1)C(=O)O; NMedβ3hAla = C[C@H](CC(=O)[*:2])N(C)[*:1]; NMeGly(cPent) = CN[C@H](C(=O)O)C1CCCC1; NMeCha = CN[C@@H](CC1CCCCC1)C(=O)O; NMeChg = CN[C@H](C(=O)O)C1CCCCC1; NMeI = CC[C@H](C)[C@H](NC)C(=O)O; NMeD = CN[C@@H](CC(=O)O)C(=O)O; NMeL = CN[C@@H](CC(C)C)C(=O)O; NMeA = CN[C@@H](C)C(=O)O; Piperidide = C1CCN(*)CC1; Ac5c = NC1(C(=O)O)CCCC1; Aze = O=C(O)[C@@H]1CCN1; Sar = CNCC(=O)O

[
  {
    "Compound": "CC[C@H](C)[C@@H]1NC(=O)[C@H](CC(C)C)N(C)C(=O)C[C@@H](C)N(C)C(=O)[C@H]([C@@H](C)CC)N(C)C(=O)C2(CCCC2)NC(=O)[C@@H]2CCCN2C(=O)[C@H](CCc2ccc(C(F)(F)F)c(F)c2)NC(=O)CN(C)C(=O)[C@H](Cc2ccc(C)cc2)N(C)C(=O)[C@@H]2CCN2C(=O)[C@H](C)N(C)C1=O [Compound 404] (cyclo([Ac5c][NMeI][NMedβ3hAla][NMeL]I[NMeA][Aze][NMePhe(4-Me)][Sar][hPhe(3-F,4-CF3)]P))",
    "pIC50": 8.32
  },
  {
    "Compound": "CC[C@H](C)[C@@H]1NC(=O)[C@H](CC(C)C)N(C)C(=O)C[C@@H](C)N(C)C(=O)[C@H]([C@@H](C)CC)N(C)C(=O)C2(CCCC2)NC(=O)[C@@H]2CCCN2C(=O)[C@H](CCc2ccc(C(F)(F)F)c(Cl)c2)NC(=O)CN(C)C(=O)[C@H](Cc2ccc(C(F)(F)F)cc2)N(CC)C(=O)[C@@H]2CCN2C(=O)[C@H](C)N(C)C1=O [Compound 898] (cyclo([Ac5c][NMeI][NMedβ3hAla][NMeL]I[NMeA][Aze][NEtPhe(4-CF3)][Sar][hPhe(3-Cl-4-CF3)]P))",
    "pIC50": 7.92
  },
  {
    "Compound": "CC[C@H](C)[C@@H]1NC(=O)[C@H](C)N(C)C(=O)C[C@@H](C(=O)N2CCCCC2)N(C)C(=O)[C@H](C2CCCCC2)N(C)C(=O)C2(CCCC2)NC(=O)[C@@H]2CCCN2C(=O)[C@H](CCc2cc(Cl)c(Cl)c(OC(C)C)c2)NC(=O)CN(C)C(=O)[C@H](CC2CCCCC2)N(C)C(=O)CN(C)C(=O)CN(C)C1=O [Compound 2062] ([NMeA]I[Sar][Sar][NMeCha][Sar][X8]P[Ac5c][NMeChg][NMeD]-Piperidide; lactam N-11)",
    "pIC50": 8.16
  },
  {
    "Compound": "CC[C@H](C)[C@@H]1NC(=O)[C@H](CC(C)C)N(C)C(=O)C[C@@H](C(=O)N2CCCCC2)N(C)C(=O)[C@H](C2CCCCC2)N(C)C(=O)C2(CCCC2)NC(=O)[C@H](C)NC(=O)[C@H](CCc2ccc(C(F)(F)F)c(Cl)c2)NC(=O)CN(C)C(=O)[C@H](CC2CCCCC2)N(C)C(=O)CN(C)C(=O)CN(C)C1=O [Compound 205] ([NMeL]I[Sar][Sar][NMeCha][Sar][hPhe(3-Cl-4-CF3)]A[Ac5c][NMeChg][NMeD]-Piperidide; lactam N-11)",
    "pIC50": 9.31
  },
  {
    "Compound": "CC[C@H](C)[C@@H]1NC(=O)[C@H](CC(C)C)N(C)C(=O)C[C@@H](C(=O)N2CCCCC2)N(C)C(=O)[C@H](C2CCCC2)N(C)C(=O)C2(CCCC2)NC(=O)[C@@H]2CCCN2C(=O)[C@H](CCc2ccc(C(F)(F)F)c(Cl)c2)NC(=O)CN(C)C(=O)[C@H](Cc2ccc(C)cc2)N(C)C(=O)[C@@H]2CCN2C(=O)[C@H](C)N(C)C1=O [Compound 1772] ([NMeL]I[NMeA][Aze][NMePhe(4-Me)][Sar][hPhe(3-Cl-4-CF3)]P[Ac5c][NMeGly(cPent)][NMeD]-Piperidide; lactam N-11)",
    "pIC50": 9.12
  }
]
